assayName: Blood pharmacokinetics of cabotegravir after a single subcutaneous administration with or without rHuPH20
Type: in vivo, male Sprague-Dawley rats
setupConditions: male, Sprague-Dawley, rat, whole blood, sc, 10 mg/kg, rat blood, single SC 10 mg/kg, without rHuPH20 (Group 1), median; read-out: Tmax
assayReadout: Tmax (days)

compoundsmiles=C[C@H]1CO[C@@H]2Cn3cc(C(=O)NCc4ccc(F)cc4F)c(=O)c(O)c3C(=O)N12 assayreadout=Tmax displayunit=days observedmeasurement=14.2

---

assayName: Blood pharmacokinetics of cabotegravir after a single subcutaneous administration with or without rHuPH20
Assay type: in vivo, male Sprague-Dawley rats
setupConditions: male, Sprague-Dawley, rat, whole blood, sc, 5 mg/kg, rat blood, single SC 5 mg/kg, without rHuPH20 (Group 3), mean ± SD; read-out: T½ (converted)
Experimental: Cabotegravir (free acid) was supplied by the Department of Pharmaceutical Development, at GSK, Upper Providence (UP), as a wet bead milled suspension (WBM), of nominal 200 mg/mL active concentration, white to slightly pink in appearance to be used for subcutaneous (SC) injection. […] Rat blood: water samples were analyzed for cabotegravir using an analytical method based on protein precipitation, followed by UPLC/MS/MS analysis. […]
assayReadout: half-life (h)

compoundsmiles=C[C@H]1CO[C@@H]2Cn3cc(C(=O)NCc4ccc(F)cc4F)c(=O)c(O)c3C(=O)N12 assayreadout=half-life observedmeasurement=200

---

assayName: Blood pharmacokinetics of cabotegravir after a single subcutaneous administration with or without rHuPH20
Assay type: in vivo, male Sprague-Dawley rats
setupConditions: male, Sprague-Dawley, rat, whole blood, sc, 5 mg/kg, rat blood, single SC 5 mg/kg, without rHuPH20 (Group 3), mean ± SD; read-out: AUC (0-tlast)
assayReadout: AUC(0-t) (µg·h/mL)

compound="C[C@H]1CO[C@@H]2Cn3cc(C(=O)NCc4ccc(F)cc4F)c(=O)c(O)c3C(=O)N12 [Cabotegravir]" observedmeasurement=4400

---

assayName: Blood pharmacokinetics of cabotegravir after a single subcutaneous administration with or without rHuPH20
Assay type: in vivo, male Sprague-Dawley rats
setupConditions: male, Sprague-Dawley, rat, whole blood, sc, 5 mg/kg, rat blood, single SC 5 mg/kg, with rHuPH20 approx. 3000 units SC (Group 4), individual animals; read-out: T½ (converted)
assayReadout: half-life (h)

compound="C[C@H]1CO[C@@H]2Cn3cc(C(=O)NCc4ccc(F)cc4F)c(=O)c(O)c3C(=O)N12 [Cabotegravir]" assayreadout=half-life observedmeasurement=240

---

assayName: Blood pharmacokinetics of cabotegravir after a single subcutaneous administration with or without rHuPH20
Type: in vivo, male Sprague-Dawley rats
setupConditions: male, Sprague-Dawley, rat, whole blood, sc, 5 mg/kg, rat blood, single SC 5 mg/kg, with rHuPH20 approx. 3000 units SC (Group 4), median; read-out: Tmax
assayReadout: Tmax

compoundsmiles=C[C@H]1CO[C@@H]2Cn3cc(C(=O)NCc4ccc(F)cc4F)c(=O)c(O)c3C(=O)N12 assayreadout=Tmax observedmeasurement="14.2 days"

---

assayName: Blood pharmacokinetics of cabotegravir after a single subcutaneous administration with or without rHuPH20
Assay type: in vivo, male Sprague-Dawley rats
setupConditions: male, Sprague-Dawley, rat, whole blood, sc, 10 mg/kg, rat blood, single SC 10 mg/kg, with rHuPH20 approx. 3000 units SC (Group 2), mean ± SD; read-out: AUC (0-tlast)
assayReadout: AUC(0-t)

compoundsmiles=C[C@H]1CO[C@@H]2Cn3cc(C(=O)NCc4ccc(F)cc4F)c(=O)c(O)c3C(=O)N12 assayreadout=AUC(0-t) observedmeasurement="7730 µg·h/mL"

---

assayName: Blood pharmacokinetics of cabotegravir after a single subcutaneous administration with or without rHuPH20
Assay type: in vivo, male Sprague-Dawley rats
setupConditions: male, Sprague-Dawley, rat, whole blood, sc, 5 mg/kg, rat blood, single SC 5 mg/kg, with rHuPH20 approx. 3000 units SC (Group 4), mean ± SD; read-out: T½ (converted)
assayReadout: half-life (h)

compoundsmiles=C[C@H]1CO[C@@H]2Cn3cc(C(=O)NCc4ccc(F)cc4F)c(=O)c(O)c3C(=O)N12 observedmeasurement=180

---

assayName: Blood pharmacokinetics of cabotegravir after a single subcutaneous administration with or without rHuPH20
Assay type: in vivo, male Sprague-Dawley rats
setupConditions: male, Sprague-Dawley, rat, whole blood, sc, 5 mg/kg, rat blood, single SC 5 mg/kg, without rHuPH20 (Group 3), individual animals; read-out: AUC (0-tlast)
assayReadout: AUC(0-t) (µg·h/mL)

compoundsmiles=C[C@H]1CO[C@@H]2Cn3cc(C(=O)NCc4ccc(F)cc4F)c(=O)c(O)c3C(=O)N12 displayunit=µg·h/mL observedmeasurement=4540

---

assayName: Blood pharmacokinetics of cabotegravir after a single subcutaneous administration with or without rHuPH20
Assay type: in vivo, male Sprague-Dawley rats
setupConditions: male, Sprague-Dawley, rat, whole blood, sc, 10 mg/kg, rat blood, single SC 10 mg/kg, without rHuPH20 (Group 1), mean ± SD (animal 12 excluded); read-out: T½ (converted)
assayReadout: half-life (days)

compound="C[C@H]1CO[C@@H]2Cn3cc(C(=O)NCc4ccc(F)cc4F)c(=O)c(O)c3C(=O)N12 [Cabotegravir]" assayreadout=half-life observedmeasurement=13.8

---

assayName: Blood pharmacokinetics of cabotegravir after a single subcutaneous administration with or without rHuPH20
Assay type: in vivo, male Sprague-Dawley rats
setupConditions: male, Sprague-Dawley, rat, whole blood, sc, 10 mg/kg, rat blood, single SC 10 mg/kg, with rHuPH20 approx. 3000 units SC (Group 2), mean ± SD; read-out: Cmax
assayReadout: Cmax (ng/mL)

compoundsmiles=C[C@H]1CO[C@@H]2Cn3cc(C(=O)NCc4ccc(F)cc4F)c(=O)c(O)c3C(=O)N12 assayreadout=Cmax observedmeasurement=9100

---

assayName: Blood pharmacokinetics of cabotegravir after a single subcutaneous administration with or without rHuPH20
Type: in vivo, male Sprague-Dawley rats
setupConditions: male, Sprague-Dawley, rat, whole blood, sc, 10 mg/kg, rat blood, single SC 10 mg/kg, with rHuPH20 approx. 3000 units SC (Group 2), individual animals; read-out: Tmax
assayReadout: Tmax

compoundsmiles=C[C@H]1CO[C@@H]2Cn3cc(C(=O)NCc4ccc(F)cc4F)c(=O)c(O)c3C(=O)N12 assayreadout=Tmax observedmeasurement="14.2 days"

---

assayName: Blood pharmacokinetics of cabotegravir after a single subcutaneous administration with or without rHuPH20
Type: in vivo, male Sprague-Dawley rats
setupConditions: male, Sprague-Dawley, rat, whole blood, sc, 5 mg/kg, rat blood, single SC 5 mg/kg, without rHuPH20 (Group 3), individual animals; read-out: T½ (converted)
assayReadout: half-life (h)

compoundsmiles=C[C@H]1CO[C@@H]2Cn3cc(C(=O)NCc4ccc(F)cc4F)c(=O)c(O)c3C(=O)N12 observedmeasurement=200

---

assayName: Blood pharmacokinetics of cabotegravir after a single subcutaneous administration with or without rHuPH20
Assay type: in vivo, male Sprague-Dawley rats
setupConditions: male, Sprague-Dawley, rat, whole blood, sc, 5 mg/kg, rat blood, single SC 5 mg/kg, without rHuPH20 (Group 3), median; read-out: Tmax
assayReadout: Tmax (days)

compoundsmiles=C[C@H]1CO[C@@H]2Cn3cc(C(=O)NCc4ccc(F)cc4F)c(=O)c(O)c3C(=O)N12 observedmeasurement=14.2

---

assayName: Blood pharmacokinetics of cabotegravir after a single subcutaneous administration with or without rHuPH20
Format: in vivo, male Sprague-Dawley rats
setupConditions: male, Sprague-Dawley, rat, whole blood, sc, 5 mg/kg, rat blood, single SC 5 mg/kg, with rHuPH20 approx. 3000 units SC (Group 4), mean ± SD; read-out: Cmax
assayReadout: Cmax

compoundsmiles=C[C@H]1CO[C@@H]2Cn3cc(C(=O)NCc4ccc(F)cc4F)c(=O)c(O)c3C(=O)N12 observedmeasurement="3800 ng/mL"

---

assayName: Blood pharmacokinetics of cabotegravir after a single subcutaneous administration with or without rHuPH20
Format: in vivo, male Sprague-Dawley rats
setupConditions: male, Sprague-Dawley, rat, whole blood, sc, 10 mg/kg, rat blood, single SC 10 mg/kg, without rHuPH20 (Group 1), mean ± SD; read-out: AUC (0-tlast)
Procedure: Cabotegravir (free acid) was supplied by the Department of Pharmaceutical Development, at GSK, Upper Providence (UP), as a wet bead milled suspension (WBM), of nominal 200 mg/mL active concentration, white to slightly pink in appearance to be used for subcutaneous (SC) injection. […] Rat blood: water samples were analyzed for cabotegravir using an analytical method based on protein precipitation, followed by UPLC/MS/MS analysis. […]
assayReadout: AUC(0-t) (µg·h/mL)

compoundsmiles=C[C@H]1CO[C@@H]2Cn3cc(C(=O)NCc4ccc(F)cc4F)c(=O)c(O)c3C(=O)N12 assayreadout=AUC(0-t) observedmeasurement=7320

---

assayName: Blood pharmacokinetics of cabotegravir after a single subcutaneous administration with or without rHuPH20
Assay type: in vivo, male Sprague-Dawley rats
setupConditions: male, Sprague-Dawley, rat, whole blood, sc, 10 mg/kg, rat blood, single SC 10 mg/kg, with rHuPH20 approx. 3000 units SC (Group 2), median; read-out: Tmax
Method: Cabotegravir (free acid) was supplied by the Department of Pharmaceutical Development, at GSK, Upper Providence (UP), as a wet bead milled suspension (WBM), of nominal 200 mg/mL active concentration, white to slightly pink in appearance to be used for subcutaneous (SC) injection. […] Rat blood: water samples were analyzed for cabotegravir using an analytical method based on protein precipitation, followed by UPLC/MS/MS analysis. […]
assayReadout: Tmax (days)

compound="C[C@H]1CO[C@@H]2Cn3cc(C(=O)NCc4ccc(F)cc4F)c(=O)c(O)c3C(=O)N12 [Cabotegravir]" observedmeasurement=14.2
